Where do the numbers come from? From patent US20250034110A1.

- SYSTEM_TESTED: human LPAR1 (Homo sapiens, UniProt Q92633)
- Sequence (Q92633 whole entry): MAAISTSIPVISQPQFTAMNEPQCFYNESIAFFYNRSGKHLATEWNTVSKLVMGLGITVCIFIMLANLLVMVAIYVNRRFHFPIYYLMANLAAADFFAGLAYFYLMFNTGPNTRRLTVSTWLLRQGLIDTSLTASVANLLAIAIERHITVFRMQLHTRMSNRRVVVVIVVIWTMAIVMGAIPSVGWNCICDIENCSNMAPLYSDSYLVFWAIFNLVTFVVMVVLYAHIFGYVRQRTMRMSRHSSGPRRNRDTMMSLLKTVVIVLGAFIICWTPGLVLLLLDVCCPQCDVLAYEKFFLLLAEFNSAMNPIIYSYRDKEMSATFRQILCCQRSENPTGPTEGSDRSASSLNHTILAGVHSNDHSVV
- ASSAY_NOTES: In vitro functional assay of lysophosphatidic acid receptor 1 activity (calcium flux)
- Assay type: cell-based
- CONDITIONS: B103 cells stably expressing human LPAR1; calcium flux (Fluo-4 NW) after lysophosphatidic acid (18:1) at EC80; 100 pM to 10 μM; read-out: LPAR1 IC50
Examples of compounds with documented IC50 follow.

Worked cases, IC50 given:
>>> experimental_value("COc1ccc(NC(=O)N(c2ccccc2C(C)C)C2CN(C(C)=O)C2)c(OC)n1 [Example 118]")
"100 to 1000 nM"
>>> experimental_value("CC(=O)N1CC(N(C(=O)Nc2ccc(C)nc2OC(F)F)c2ccccc2C(C)C)C1 [Example 67]")
"10 to 100 nM"
>>> experimental_value("Cc1cc(OC(F)F)c(NC(=O)N(C[C@H]2C[C@H](C(=O)O)C2)c2ccccc2C(C)C)cn1 [Example 227]")
"10 to 100 nM"

Sure, the documented IC50 for Cc1ccc(NC(=O)N(c2ccccc2C(C)C)[C@H]2CCC[C@@H](C(=O)O)C2)c(OC(F)F)n1 [Example 285] is < 10 nM

Sure, the documented IC50 for COc1cc(Cl)c(F)cc1NC(=O)N(c1ccccc1C(C)C)[C@H]1C[C@@H](CC(=O)O)C1 [Example 330] is < 10 nM

Sure, the documented IC50 for Cc1ccc(NC(=O)N(c2ccccc2C(C)C)C2CCC(F)(F)CC2)c(OC(F)F)n1 [Example 237] is 100 to 1000 nM

Sure, the documented IC50 for COc1ccc(NC(=O)N(c2ccccc2C(C)(C)F)[C@H]2CC[C@H](C(=O)O)CC2)c(OC(F)F)n1 [Example 278] is 10 to 100 nM

Sure, the documented IC50 for CC(C)(C)c1ccccc1N(C(=O)Nc1ncc(Br)cc1OC(F)F)C1CCC(C(=O)O)CC1 (stereo not shown) [Example 273] is 10 to 100 nM

Sure, the documented IC50 for Cc1ccc(NC(=O)N(c2ccccc2C(C)C)C2CC(=O)N(C)C2)c(OC(F)F)n1 (stereo not shown) [Example 7] is 100 to 1000 nM

Sure, the documented IC50 for COc1ccc(NC(=O)N(c2ccccc2C(C)C)[C@H]2C[C@]3(C[C@H]3C(=O)O)C2)c(OC(F)F)n1 [Example 150] is < 10 nM

Sure, the documented IC50 for COc1ccc(NC(=O)N(c2ccccc2C(C)C)[C@H]2CCC[C@H](C(=O)O)C2)c(OC(F)F)n1 [Example 146] is 10 to 100 nM

Sure, the documented IC50 for Cc1ccc(NC(=O)N(c2ccccc2C(C)C)C2CN(C(=O)Cn3nccn3)C2)c(OC(F)F)n1 [Example 80] is 100 to 1000 nM

Sure, the documented IC50 for Cc1ccc(NC(=O)N(c2ccccc2C(C)C)C2COC2)c(OC(F)F)n1 [Example 14] is 10 to 100 nM

Sure, the documented IC50 for Cc1ccc(NC(=O)N(CC2COC2)c2ccccc2C(C)C)c(OC(F)F)n1 [Example 15] is 10 to 100 nM

Sure, the documented IC50 for Cc1ccc(NC(=O)N(c2ccccc2C(C)C)C2CC(C=O)C2)c(OC(F)F)n1 (stereo not shown) [Example 194] is 100 to 1000 nM

Sure, the documented IC50 for CC(=O)N1CC[C@@H]1CN(C(=O)Nc1ccc(C)nc1OC(F)F)c1ccccc1C(C)C [Example 71] is > 1000 nM

Sure, the documented IC50 for CC(=O)N1CC2(CC(N(C(=O)Nc3ccc(C)cc3OC(F)F)c3ccccc3C(C)C)C2)C1 [Example 125] is 10 to 100 nM

Sure, the documented IC50 for COc1ccc(NC(=O)N(c2ccccc2C(C)C)[C@@H]2CCC[C@H](C(=O)O)C2)c(OC(F)F)n1 [Example 286] is 10 to 100 nM

Sure, the documented IC50 for Cc1ccc(NC(=O)N(c2ccccc2C(C)C)C2CC3(C2)CN(C(=O)NC2CC2)C3)c(OC(F)F)c1 [Example 126] is 10 to 100 nM

Sure, the documented IC50 for Cc1ccc(NC(=O)N(c2ccccc2C(C)C)C2CCC(=O)N(C)C2)c(OC(F)F)n1 (stereo not shown) [Example 4] is 10 to 100 nM

Sure, the documented IC50 for Cc1ccc(NC(=O)N(c2ccccc2C(C)C)[C@@H]2CCOC2)c(OC(F)F)n1 [Example 16] is 10 to 100 nM

Sure, the documented IC50 for COC(=O)C1CC(CN(C(=O)Nc2ccc(C)nc2OC(F)F)c2ccccc2C(C)C)C1 (stereo not shown) [Example 169] is 10 to 100 nM

Sure, the documented IC50 for Cc1ccc(NC(=O)N(c2ccccc2C(C)C)[C@H]2C[C@@H](C(N)=O)C2)c(OC(F)F)n1 [Example 187] is > 1000 nM
